This collection of values is drawn from PubChem BioAssay (NCI).

Test system: NCI-H23 lung
Assay: NCI-60 one-dose screen, 48 h (100 = growth as untreated, 0 = no growth, -100 = all killed)
Details: 10 µM unless noted
This is part of a sample that, as a whole, favours compounds with a hit. Of some 83,000 tested, about 20% had one in any assay.
measurementKind: growth (%)

{"compound": "COC(=O)c1nc(-c2ccccc2)oc1S(=O)(=O)Cc1ccccc1", "measurementKind": "growth", "unitDescriptor": "%", "measuredResult": 96.8}
{"compound": "O=C1Nc2ccccc2/C1=C/c1nc2ccccc2c(=O)[nH]1", "measurementKind": "growth", "unitDescriptor": "%", "measuredResult": 75.8}
{"compound": "CC(C)c1ccc(C(=O)Nc2nc3ccc(O)c(CN(C)C)c3s2)cc1", "measurementKind": "growth", "unitDescriptor": "%", "measuredResult": 88.9}
{"compound": "COC(=O)c1c(C)c2n(c1C)C(=O)C(c1ccccc1)=C2", "measurementKind": "growth", "unitDescriptor": "%", "measuredResult": 68.9}
{"compound": "CCN(CC)Cc1cc(C=C2C(=O)NC(=S)NC2=O)cc(OC)c1O", "measurementKind": "growth", "unitDescriptor": "%", "measuredResult": 98.1}
{"compound": "COc1c(C(=O)Nc2ccc(C)c(Br)c2)ccc2ccccc12", "measurementKind": "growth", "unitDescriptor": "%", "measuredResult": 90.6}
{"compound": "CCCCNC(=O)Oc1ccc(/C(=C(/C)Cc2ccc(OC)cc2)c2ccc(OCCN(CC)CC)cc2)cc1", "measurementKind": "growth", "unitDescriptor": "%", "measuredResult": 97}
{"compound": "OCCn1cc(-c2nc(-c3c[nH]c4ncccc34)cs2)c2cc(F)ccc21", "measurementKind": "growth", "unitDescriptor": "%", "measuredResult": 76.2}
{"compound": "COc1cc2c(c(OC)c1OC)CCC(c1cccc(C(=O)Nc3ccc(C#N)cc3)c1)O2 (stereo not given)", "measurementKind": "growth", "unitDescriptor": "%", "measuredResult": 40.6}
{"compound": "O=C(NCCNc1nccc(Nc2ccc(S(=O)(=O)Nc3ccccn3)cc2)n1)c1cccc([N+](=O)[O-])c1", "measurementKind": "growth", "unitDescriptor": "%", "measuredResult": 97.4}

----------
Tested on: MCF7 breast
Test: NCI-60 one-dose screen, 48 h (100 = growth as untreated, 0 = no growth, -100 = all killed)
Conditions: 10 µM unless noted
Compounds without any hit were thinned out: in the full panel of roughly 83,000, 20% have a hit.
measurementKind: growth (%)

{"molSmiles": "CCCCCCCC[C@@H]1N[C@@H](C(=O)OC)Cc2c1[nH]c1ccccc21", "measurementKind": "growth", "measuredResult": 92}
{"molSmiles": "COc1ccc(-c2noc(C(=O)O)c2-c2cc(OC)c(OC)c(OC)c2)cc1", "measurementKind": "growth", "measuredResult": 18.9}
{"molSmiles": "Cc1ccc(C[P+](c2ccccc2)(c2ccccc2)c2ccccc2)cc1", "measurementKind": "growth", "measuredResult": 10.9}
{"molSmiles": "c1ccc([P+](c2ccccc2)(c2ccccc2)c2ccc3c4ccc([P+](c5ccccc5)(c5ccccc5)c5ccccc5)c5cccc(c6cccc2c63)c54)cc1", "measurementKind": "growth", "measuredResult": 16.1}
{"molSmiles": "CN(C)Cc1ccc(O)c(C(=O)O)c1", "measurementKind": "growth", "measuredResult": 107}
{"molSmiles": "Nc1ncc(-c2ccc3ncnc(Nc4cccc(Cl)c4)c3c2)cn1", "measurementKind": "growth", "measuredResult": 24.2}
{"molSmiles": "Nc1ncnc2c1c(-c1cccc(Cl)c1)nn2CC(=O)N1CCOCC1", "measurementKind": "growth", "measuredResult": 94.9}
{"molSmiles": "C=C1C(=O)O[C@H]2[C@H]1CC/C(COC(=O)NCc1ccc(Cn3c(=O)sn(CCCCC)c3=O)cc1)=C\\CC[C@@]1(C)O[C@@H]21", "measurementKind": "growth", "measuredResult": 6.29}
{"molSmiles": "O=S(=O)(Nc1cc(Cl)ccc1Cl)c1ccc(-c2cnc(C3CC3)o2)cc1", "measurementKind": "growth", "measuredResult": 12.9}
{"molSmiles": "Cc1cc(N2CCN(CCNc3ccnc4cc(Cl)ccc34)CC2)nc(N2CCOCC2)n1", "measurementKind": "growth", "measuredResult": 53.3}
